RUN DESCRIPTION: Plasma pharmacokinetics with loading dose and weekly or twice weekly maintenance dosing, fed (Example 5)
Format: in vivo, human
STATED CONDITIONS: human, plasma, oral, Panel II (450 mg BID Days 1-2, then 450 mg Q3D/Q4D; SF2a/b, fed), Day 2; read-out: Mean AUCτ (SD)
VALUE KIND: AUC (ng·h/mL)
Write the number in ng·h/mL without appending the unit.

Which measured AUC value corresponds to COc1cc(NC(C(=O)c2c[nH]c3ccc(OC(F)(F)F)cc23)c2ccc(Cl)cc2OC)cc(S(C)(=O)=O)c1 (stereo not shown) ?
44900

* * *

RUN DESCRIPTION: Effect of food on plasma pharmacokinetics after single oral dose of SF2a/b (Example 2)
Type: in vivo, human
STATED CONDITIONS: both sexes, human, plasma, oral, 800 mg, Treatment E: single 800 mg (SF2b), fed, standardized breakfast; read-out: AUC∞, Median
VALUE KIND: AUC(0-inf)
# output: numeric value plus its unit

Which measured AUC(0-inf) value corresponds to COc1cc(NC(C(=O)c2c[nH]c3ccc(OC(F)(F)F)cc23)c2ccc(Cl)cc2OC)cc(S(C)(=O)=O)c1 (stereo not shown) ?
345 µg·h/mL

// data source = patent US20250281457A1
